- Tested on: A431 (skin squamous) cancer cell line
- Assay name: MTT antiproliferation, A431
- Format: cell-based, human
- Recorded conditions: Homo sapiens, A-431, read-out: Observed log(IC50, μM) (A431) (converted)
- Procedure: Antiproliferation properties of the targeted agents were investigated by the standard MTT technique against diverse human cancer cell lines [MCF7 (breast), HCT116 (colon), A431 (skin squamous) and PaCa2 (pancreatic)][67] (Table 1, Supplementary Figs. S48‒S51). […] Data were collected as mean values for experiments performed in triplicates for each individual dose which had been measured by MTT assay. […] The cell surviving fraction was calculated according to the following equation. […]
Below, each of the compounds is paired with its reported IC50 value.
Give the value in µM but do not write µM after it.

Below, each entry is followed by its recorded IC50 result.
| Compound | IC50 / µM |
| --- | --- |
| CN1CC(c2ccc(Cl)cc2)C2(CN(S(C)(=O)=O)C/C(=C\c3ccc(Cl)cc3)C2=O)C12C(=O)Nc1ccccc12 (stereo not drawn) [Compound 6i] | 4.4 |
| CCS(=O)(=O)N1C/C(=C\c2ccccc2)C(=O)C2(C1)C(c1ccccc1)CN(C)C21C(=O)Nc2ccc(Cl)cc21 (stereo not drawn) [Compound 6d] | 4.96 |
| COc1ccc(/C=C2\CN(S(C)(=O)=O)CC3(C2=O)C(c2ccc(OC)c(OC)c2)CN(C)C32C(=O)Nc3ccccc32)cc1OC (stereo not drawn) [Compound 6n] | 34.9 |
| CCS(=O)(=O)N1C/C(=C\c2ccc(F)cc2)C(=O)C2(C1)C(c1ccc(F)cc1)CN(C)C21C(=O)Nc2ccc(Cl)cc21 (stereo not drawn) [Compound 6h] | 6.04 |
| CN1CC(c2ccc(Cl)cc2)C2(CN(S(C)(=O)=O)C/C(=C\c3ccc(Cl)cc3)C2=O)C12C(=O)Nc1ccc(Cl)cc12 (stereo not drawn) [Compound 6j] | 4.08 |

According to the records, this compound COc1ccc(/C=C2\CN(S(C)(=O)=O)CC3(C2=O)C(c2ccc(OC)c(OC)c2)CN(C)C32C(=O)Nc3ccc(Cl)cc32)cc1OC (stereo not drawn) [Compound 6o] displays IC50 of 45.4

According to the records, this compound CN1CC(c2ccccc2)C2(CN(S(C)(=O)=O)C/C(=C\c3ccccc3)C2=O)C12C(=O)Nc1ccc(Cl)cc12 (stereo not drawn) [Compound 6b] displays IC50 of 9.15

According to the records, this compound CCS(=O)(=O)N1C/C(=C\c2ccc(Cl)cc2)C(=O)C2(C1)C(c1ccc(Cl)cc1)CN(C)C21C(=O)Nc2ccccc21 (stereo not drawn) [Compound 6k] displays IC50 of 2.97

According to the records, this compound CN1CC(c2ccc(Br)cc2)C2(CN(S(C)(=O)=O)C/C(=C\c3ccc(Br)cc3)C2=O)C12C(=O)Nc1ccccc12 (stereo not drawn) [Compound 6m] displays IC50 of 2.43

According to the records, this compound CN1CC(c2ccc(F)cc2)C2(CN(S(C)(=O)=O)C/C(=C\c3ccc(F)cc3)C2=O)C12C(=O)Nc1ccccc12 (stereo not drawn) [Compound 6e] displays IC50 of 16.1

According to the records, this compound CCS(=O)(=O)N1C/C(=C\c2ccc(Cl)cc2)C(=O)C2(C1)C(c1ccc(Cl)cc1)CN(C)C21C(=O)Nc2ccc(Cl)cc21 (stereo not drawn) [Compound 6l] displays IC50 of 3.69

// data source = paper PMC9380671
